target: T1, in-line fusion protein of human IL-36R extracellular domain and IL1RAcP extracellular domain expressed with … (human; mouse, UniProt Q9HB29 20-337; Q9NPH3 21-359, limits assumed)
T1 construct: not shown: mouse IgG2a Fc
T1 sequence (looked up): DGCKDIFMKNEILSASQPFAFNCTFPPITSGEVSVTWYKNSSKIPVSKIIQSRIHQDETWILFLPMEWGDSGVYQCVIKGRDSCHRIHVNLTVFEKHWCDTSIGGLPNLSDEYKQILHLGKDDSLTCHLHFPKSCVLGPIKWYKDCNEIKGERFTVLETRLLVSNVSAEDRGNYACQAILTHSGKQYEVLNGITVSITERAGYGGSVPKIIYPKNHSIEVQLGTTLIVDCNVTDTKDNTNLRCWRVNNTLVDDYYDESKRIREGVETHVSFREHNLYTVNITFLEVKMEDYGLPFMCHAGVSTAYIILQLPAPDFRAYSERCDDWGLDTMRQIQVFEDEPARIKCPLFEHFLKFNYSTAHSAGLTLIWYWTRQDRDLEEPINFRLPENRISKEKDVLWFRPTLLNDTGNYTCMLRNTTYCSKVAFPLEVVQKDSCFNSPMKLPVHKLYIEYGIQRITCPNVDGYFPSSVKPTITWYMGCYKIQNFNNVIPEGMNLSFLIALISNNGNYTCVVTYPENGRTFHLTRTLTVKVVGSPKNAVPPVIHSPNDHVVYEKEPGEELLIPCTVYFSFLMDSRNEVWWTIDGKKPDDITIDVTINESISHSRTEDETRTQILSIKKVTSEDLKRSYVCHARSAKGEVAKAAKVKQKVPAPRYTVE
assay-comment: SPR Biacore 4000, mAb captured on anti-hFc, 37C
The binders listed here are annotated with their t1/2.
Kindly answer with a numeric value in min, unit omitted.

Some solved cases for reference:
>>> recorded_measurement("H4H14709P (antibody, human IgG4 S228P, kappa, V domains shown, Fully human anti-IL-36R antibody) VH: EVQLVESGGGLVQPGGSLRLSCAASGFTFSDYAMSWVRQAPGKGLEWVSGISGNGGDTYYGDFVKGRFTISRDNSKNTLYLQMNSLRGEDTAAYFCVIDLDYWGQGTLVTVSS VL: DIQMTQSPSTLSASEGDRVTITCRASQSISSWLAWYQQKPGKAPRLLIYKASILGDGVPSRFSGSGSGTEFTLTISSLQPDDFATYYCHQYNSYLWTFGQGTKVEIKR")
94
>>> recorded_measurement("H4H14731P (antibody, human IgG4 S228P, kappa, V domains shown, Fully human anti-IL-36R antibody) VH: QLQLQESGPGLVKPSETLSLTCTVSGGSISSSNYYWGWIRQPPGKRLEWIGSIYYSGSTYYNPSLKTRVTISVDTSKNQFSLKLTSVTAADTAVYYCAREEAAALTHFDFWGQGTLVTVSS VL: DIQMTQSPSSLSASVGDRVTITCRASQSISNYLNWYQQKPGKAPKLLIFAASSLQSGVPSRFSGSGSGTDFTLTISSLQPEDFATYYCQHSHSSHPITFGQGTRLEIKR")
22

Moving on to the next binder.
Sample H4H14728P (antibody, human IgG4 S228P, kappa, V domains shown, Fully human anti-IL-36R antibody) VH: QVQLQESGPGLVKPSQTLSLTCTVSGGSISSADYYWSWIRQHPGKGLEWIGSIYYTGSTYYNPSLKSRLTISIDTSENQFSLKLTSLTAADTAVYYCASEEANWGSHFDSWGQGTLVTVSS VL: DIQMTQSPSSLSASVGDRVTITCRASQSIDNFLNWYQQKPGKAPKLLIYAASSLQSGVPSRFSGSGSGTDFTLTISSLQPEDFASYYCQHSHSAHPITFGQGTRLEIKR ; t1/2 observed: 6

Hey, just so you know, these numbers are from patent US20200017592A1.
